EXPERIMENTAL TARGET: NHE3 (Homo sapiens)
Construct: expressed in transfected cells
Sequence (P48764 26-834): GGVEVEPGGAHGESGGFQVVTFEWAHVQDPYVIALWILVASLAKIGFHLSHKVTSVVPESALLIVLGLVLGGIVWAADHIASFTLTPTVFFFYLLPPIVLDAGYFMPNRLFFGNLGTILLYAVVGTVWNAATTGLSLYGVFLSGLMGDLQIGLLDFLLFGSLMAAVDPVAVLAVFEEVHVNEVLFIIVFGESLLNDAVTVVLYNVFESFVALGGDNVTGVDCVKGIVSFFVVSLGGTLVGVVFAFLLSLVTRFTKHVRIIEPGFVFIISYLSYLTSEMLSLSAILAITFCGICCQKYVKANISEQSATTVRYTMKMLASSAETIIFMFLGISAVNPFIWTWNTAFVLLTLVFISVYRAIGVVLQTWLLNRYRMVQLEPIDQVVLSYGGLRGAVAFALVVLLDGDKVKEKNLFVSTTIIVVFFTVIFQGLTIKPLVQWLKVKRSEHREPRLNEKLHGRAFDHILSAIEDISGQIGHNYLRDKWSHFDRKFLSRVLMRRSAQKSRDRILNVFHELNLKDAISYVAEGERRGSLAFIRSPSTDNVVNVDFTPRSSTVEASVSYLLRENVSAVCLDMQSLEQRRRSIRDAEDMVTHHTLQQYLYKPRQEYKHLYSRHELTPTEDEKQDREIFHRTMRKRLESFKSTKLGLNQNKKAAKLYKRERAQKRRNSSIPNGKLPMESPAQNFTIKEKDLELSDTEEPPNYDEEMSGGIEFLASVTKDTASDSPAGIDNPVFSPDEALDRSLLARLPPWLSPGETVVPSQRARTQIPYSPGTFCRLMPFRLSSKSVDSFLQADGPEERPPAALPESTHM
Sequence (Q99653 2-195 partner limits assumed): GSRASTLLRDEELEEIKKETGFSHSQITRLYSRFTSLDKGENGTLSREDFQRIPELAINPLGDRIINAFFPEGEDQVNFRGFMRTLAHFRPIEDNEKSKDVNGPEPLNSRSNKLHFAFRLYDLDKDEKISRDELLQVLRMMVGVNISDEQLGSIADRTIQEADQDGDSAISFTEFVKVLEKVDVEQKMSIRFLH
EXPERIMENTAL PROTOCOL: Cell-based assay of NHE-3 activity (persistent inhibition), human
RUN CONDITIONS: human Persistence, 60 min incubation then washout
Where a name gives a salt, the structure may show the parent alone.

{"COMPOUND": "Cc1cc(S(=O)(=O)NCCOCCOCCNC(=O)NCCCCNC(=O)NCCOCCOCCNS(=O)(=O)c2ccc(O[C@H]3c4cc(Cl)cc(C)c4C[C@@H]3N(C)C)c(C)c2)ccc1O[C@H]1c2cc(Cl)cc(C)c2C[C@@H]1N(C)C", "EXPERIMENTAL TARGET": "NHE3 (Homo sapiens)", "% inhibition": "C (>70%)"}
{"COMPOUND": "C[C@@H](COCCOCCNC(=O)NCCCCNC(=O)NCCOCCOC[C@H](C)NS(=O)(=O)c1ccc(O[C@H]2c3cc(Cl)cc(Cl)c3C[C@@H]2N2CCC[C@@H](N)C2)cc1)NS(=O)(=O)c1ccc(O[C@H]2c3cc(Cl)cc(Cl)c3C[C@@H]2N2CCC[C@@H](N)C2)cc1 [Example 96, hydrochloride]", "EXPERIMENTAL TARGET": "NHE3 (Homo sapiens)", "% inhibition": "C (>70%)"}
{"COMPOUND": "CN(C)[C@@H]1CCCN([C@H]2Cc3c(Cl)cc(Cl)cc3[C@@H]2Oc2ccc(S(=O)(=O)NCCOCCOCCNC(=O)NCCCCNC(=O)NCCOCCOCCNS(=O)(=O)c3ccc(O[C@H]4c5cc(Cl)cc(Cl)c5C[C@@H]4N4CCC[C@@H](N(C)C)C4)cc3)cc2)C1", "EXPERIMENTAL TARGET": "NHE3 (Homo sapiens)", "% inhibition": "C (>70%)"}
{"COMPOUND": "N#Cc1cc(Cl)cc2c1C[C@H](N1CCNCC1)[C@H]2Oc1ccc(S(=O)(=O)N[C@H]2CCN(CCOCCNC(=O)NCCCCNC(=O)NCCOCCN3CC[C@H](NS(=O)(=O)c4ccc(O[C@H]5c6cc(Cl)cc(C#N)c6C[C@@H]5N5CCNCC5)c(F)c4)C3)C2)cc1F", "EXPERIMENTAL TARGET": "NHE3 (Homo sapiens)", "% inhibition": "C (>70%)"}
{"COMPOUND": "Cc1cc(S(=O)(=O)NCCCCCCCCNC(=O)NCCCCNC(=O)NCCCCCCCCNS(=O)(=O)c2ccc(O[C@H]3c4cc(Cl)cc(Cl)c4C[C@@H]3N(C)C)c(C)c2)ccc1O[C@H]1c2cc(Cl)cc(Cl)c2C[C@@H]1N(C)C", "EXPERIMENTAL TARGET": "NHE3 (Homo sapiens)", "% inhibition": "A (NHE3 < 40%)"}
{"COMPOUND": "O=C(NCCCCNC(=O)NCCOCCOCCNS(=O)(=O)c1ccc(O[C@H]2c3cc(Cl)cc(Cl)c3C[C@@H]2N2CC3CCC2CC3)cc1)NCCOCCOCCNS(=O)(=O)c1ccc(O[C@H]2c3cc(Cl)cc(Cl)c3C[C@@H]2N2CC3CCC2CC3)cc1", "EXPERIMENTAL TARGET": "NHE3 (Homo sapiens)", "% inhibition": "C (>70%)"}
{"COMPOUND": "C[C@H]1CN([C@H]2Cc3c(C#N)cc(Cl)cc3[C@@H]2Oc2ccc(S(=O)(=O)N[C@@H]3CCN(CCOCCNC(=O)NCCCCNC(=O)NCCOCCN4CC[C@@H](NS(=O)(=O)c5ccc(O[C@H]6c7cc(Cl)cc(C#N)c7C[C@@H]6N6CCN[C@@H](C)C6)cc5)C4)C3)cc2)CCN1", "EXPERIMENTAL TARGET": "NHE3 (Homo sapiens)", "% inhibition": "C (>70%)"}
{"COMPOUND": "Cc1cc(Cl)cc2c1C[C@H](N1CCC[C@@H](N(C)C)C1)[C@H]2Oc1ccc(S(=O)(=O)NCCOCCOCCNC(=O)NCCCCNC(=O)NCCOCCOCCNS(=O)(=O)c2ccc(O[C@H]3c4cc(Cl)cc(C)c4C[C@@H]3N3CCC[C@@H](N(C)C)C3)cc2)cc1", "EXPERIMENTAL TARGET": "NHE3 (Homo sapiens)", "% inhibition": "C (>70%)"}
{"COMPOUND": "N#Cc1cc(Cl)cc2c1C[C@H](N1CCNCC1)[C@H]2Oc1ccc(S(=O)(=O)NC2CCN(C(=O)CCCNC(=O)NCCCCNC(=O)NCCCC(=O)N3CCC(NS(=O)(=O)c4ccc(O[C@H]5c6cc(Cl)cc(C#N)c6C[C@@H]5N5CCNCC5)cc4)CC3)CC2)cc1", "EXPERIMENTAL TARGET": "NHE3 (Homo sapiens)", "% inhibition": "C (>70%)"}
{"COMPOUND": "C[C@H]1CN([C@H]2Cc3c(C#N)cc(Cl)cc3[C@@H]2Oc2ccc(S(=O)(=O)N[C@H]3CCN(CCOCCNC(=O)NCCCCNC(=O)NCCOCCN4CC[C@H](NS(=O)(=O)c5ccc(O[C@H]6c7cc(Cl)cc(C#N)c7C[C@@H]6N6CCN[C@@H](C)C6)cc5)C4)C3)cc2)CCN1", "EXPERIMENTAL TARGET": "NHE3 (Homo sapiens)", "% inhibition": "C (>70%)"}
{"COMPOUND": "COc1cc(O[C@H]2c3cc(Cl)cc(Cl)c3C[C@@H]2N2CCC[C@@H](N)C2)ccc1S(=O)(=O)NCCOCCOCCNC(=O)NCCCCNC(=O)NCCOCCOCCNS(=O)(=O)c1ccc(O[C@H]2c3cc(Cl)cc(Cl)c3C[C@@H]2N2CCC[C@@H](N)C2)cc1OC", "EXPERIMENTAL TARGET": "NHE3 (Homo sapiens)", "% inhibition": "B (40-70%)"}
{"COMPOUND": "Cc1cc(S(=O)(=O)NCCOCCOCCNC(=O)NCCCCNC(=O)NCCOCCOCCNS(=O)(=O)c2ccc(O[C@H]3c4cc(Cl)cc(C#N)c4C[C@@H]3N3CCC[C@@H](N(C)C)C3)c(C)c2)ccc1O[C@H]1c2cc(Cl)cc(C#N)c2C[C@@H]1N1CCC[C@@H](N(C)C)C1", "EXPERIMENTAL TARGET": "NHE3 (Homo sapiens)", "% inhibition": "A (NHE3 < 40%)"}
{"COMPOUND": "N[C@@H]1CCCN([C@H]2Cc3c(Cl)cc(Cl)cc3[C@@H]2Oc2ccc(S(=O)(=O)N3CC[C@H](OCCOCCNC(=O)NCCCCNC(=O)NCCOCCO[C@H]4CCN(S(=O)(=O)c5ccc(O[C@H]6c7cc(Cl)cc(Cl)c7C[C@@H]6N6CCC[C@@H](N)C6)cc5)C4)C3)cc2)C1", "EXPERIMENTAL TARGET": "NHE3 (Homo sapiens)", "% inhibition": "C (>70%)"}
{"COMPOUND": "Cc1cc(Cl)cc2c1C[C@H](N1CCC[C@@H](N(C)C)C1)[C@H]2Oc1ccc(S(=O)(=O)NCCOCCOCCNC(=O)NCCCCNC(=O)NCCOCCOCCNS(=O)(=O)c2ccc(O[C@H]3c4cc(Cl)cc(C)c4C[C@@H]3N3CCC[C@@H](N(C)C)C3)c(F)c2)cc1F", "EXPERIMENTAL TARGET": "NHE3 (Homo sapiens)", "% inhibition": "C (>70%)"}
{"COMPOUND": "N#Cc1cc(Cl)cc2c1C[C@H](N1CCCNCC1)[C@H]2Oc1ccc(S(=O)(=O)N[C@H]2CCN(CCOCCNC(=O)NCCCCNC(=O)NCCOCCN3CC[C@H](NS(=O)(=O)c4ccc(O[C@H]5c6cc(Cl)cc(C#N)c6C[C@@H]5N5CCCNCC5)cc4)C3)C2)cc1", "EXPERIMENTAL TARGET": "NHE3 (Homo sapiens)", "% inhibition": "B (40-70%)"}

The reported numbers originate from patent US11242337B2.
